Ref: patent US20080214560A1

target entity: recombinant human GSK3β (Homo sapiens)
Sequence (P49841 whole entry): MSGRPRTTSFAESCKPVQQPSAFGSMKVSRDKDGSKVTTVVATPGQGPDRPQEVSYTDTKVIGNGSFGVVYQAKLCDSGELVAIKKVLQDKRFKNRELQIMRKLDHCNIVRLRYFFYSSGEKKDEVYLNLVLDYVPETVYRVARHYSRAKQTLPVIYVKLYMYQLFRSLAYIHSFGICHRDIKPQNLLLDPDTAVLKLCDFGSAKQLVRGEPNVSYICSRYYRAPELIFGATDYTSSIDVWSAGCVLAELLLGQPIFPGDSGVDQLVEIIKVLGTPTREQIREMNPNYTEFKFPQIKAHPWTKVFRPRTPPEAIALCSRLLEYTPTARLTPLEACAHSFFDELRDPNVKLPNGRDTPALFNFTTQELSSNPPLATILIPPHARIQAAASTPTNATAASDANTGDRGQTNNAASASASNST
assay info: GSK3β Scintillation Proximity Assay (ATP competition)
test parameters: SPA, 1 μM ATP, Km of ATP 20 μM used to calculate Ki
Where a name gives a salt, the structure may show the parent alone.
readout: Ki (nM)

1) Cc1cc(S(=O)(=O)N2CCN(C)CC2)ccc1Nc1ncc(F)c(-c2cnc(C)n2C(C)C)n1 [Example 5, hydrochloride]; 24

[I] Cc1ncc(-c2nc(Nc3ccc(C(=O)N4CCN(C)CC4)cc3)ncc2F)n1C(C)C [Example 13, hydrochloride]
[II] Cc1ncc(-c2nc(Nc3ccc(C(=O)c4ccccn4)cc3)ncc2F)n1C(C)C [Example 2, hydrochloride]
[III] COc1cc(Nc2ncc(F)c(-c3cnc(C)n3C(C)C)n2)ccc1C(=O)N1CCN(C)CC1 [Example 11, hydrochloride]
[ask] Exam item: list the entries in increasing order of Ki. Thanks in advance for listing the labels in the requested order.
[reply] II, I, III
(II: 1.3 nM, I: 3.8 nM, III: 25 nM)
